SYSTEM TESTED: PI3Kβ (p110β/p85α) (Homo sapiens)
Sequence (P42338 whole entry): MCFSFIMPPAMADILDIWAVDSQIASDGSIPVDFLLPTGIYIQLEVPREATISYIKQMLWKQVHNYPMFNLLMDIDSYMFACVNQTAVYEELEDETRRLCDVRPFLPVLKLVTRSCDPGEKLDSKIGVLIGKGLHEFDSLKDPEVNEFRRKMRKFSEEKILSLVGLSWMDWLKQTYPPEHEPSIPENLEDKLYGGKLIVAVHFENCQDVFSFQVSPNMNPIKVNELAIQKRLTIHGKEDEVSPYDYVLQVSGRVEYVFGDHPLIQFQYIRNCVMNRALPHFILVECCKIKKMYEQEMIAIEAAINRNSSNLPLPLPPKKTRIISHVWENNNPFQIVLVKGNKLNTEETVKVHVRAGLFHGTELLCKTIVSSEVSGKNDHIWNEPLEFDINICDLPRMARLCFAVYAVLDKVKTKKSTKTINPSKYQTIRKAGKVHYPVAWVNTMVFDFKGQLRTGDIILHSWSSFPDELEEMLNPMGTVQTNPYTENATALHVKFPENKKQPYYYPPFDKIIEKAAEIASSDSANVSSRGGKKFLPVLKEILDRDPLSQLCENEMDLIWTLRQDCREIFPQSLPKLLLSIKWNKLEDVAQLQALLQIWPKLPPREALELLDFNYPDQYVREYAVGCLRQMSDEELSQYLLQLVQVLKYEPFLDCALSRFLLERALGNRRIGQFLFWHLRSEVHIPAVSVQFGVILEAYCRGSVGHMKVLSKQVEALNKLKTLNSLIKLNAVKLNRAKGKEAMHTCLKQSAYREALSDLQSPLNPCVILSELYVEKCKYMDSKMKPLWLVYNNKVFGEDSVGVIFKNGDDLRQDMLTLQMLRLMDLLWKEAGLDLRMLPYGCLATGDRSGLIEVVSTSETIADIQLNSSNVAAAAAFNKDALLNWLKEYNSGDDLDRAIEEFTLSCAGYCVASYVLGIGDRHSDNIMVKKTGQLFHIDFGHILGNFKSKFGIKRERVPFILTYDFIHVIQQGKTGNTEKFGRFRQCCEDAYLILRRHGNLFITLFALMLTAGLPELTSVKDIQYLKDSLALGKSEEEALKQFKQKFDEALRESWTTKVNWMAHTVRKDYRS
Sequence (P27986 whole entry partner): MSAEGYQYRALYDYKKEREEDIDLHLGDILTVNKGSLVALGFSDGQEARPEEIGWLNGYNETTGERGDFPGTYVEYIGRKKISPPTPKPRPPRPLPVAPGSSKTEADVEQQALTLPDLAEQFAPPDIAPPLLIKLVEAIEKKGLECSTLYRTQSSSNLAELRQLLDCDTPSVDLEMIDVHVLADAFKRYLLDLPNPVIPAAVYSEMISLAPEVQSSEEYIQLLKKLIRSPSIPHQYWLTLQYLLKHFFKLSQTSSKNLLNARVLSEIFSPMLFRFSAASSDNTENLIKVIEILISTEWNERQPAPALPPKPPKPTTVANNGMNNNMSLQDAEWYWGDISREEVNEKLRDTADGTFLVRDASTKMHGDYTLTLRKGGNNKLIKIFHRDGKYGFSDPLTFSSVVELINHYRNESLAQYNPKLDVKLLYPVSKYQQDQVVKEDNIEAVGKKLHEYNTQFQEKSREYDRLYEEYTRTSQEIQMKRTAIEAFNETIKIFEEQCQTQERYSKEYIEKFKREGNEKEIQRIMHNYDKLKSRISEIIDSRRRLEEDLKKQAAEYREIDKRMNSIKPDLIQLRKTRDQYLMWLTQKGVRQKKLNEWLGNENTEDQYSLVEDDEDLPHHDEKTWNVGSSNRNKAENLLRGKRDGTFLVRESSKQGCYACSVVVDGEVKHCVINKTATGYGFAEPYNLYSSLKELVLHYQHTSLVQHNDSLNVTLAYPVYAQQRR
TEST SUMMARY: In vitro PI3K activity assay
Recorded IC50 for the following compounds
Respond numerically; units are nM and should not be typed.

| COMPOUND | SYSTEM TESTED | UNIT TAG | IC50 |
| --- | --- | --- | --- |
| CCOC(=O)c1sc(=NN=C(C)c2c(O)c3ccccc3oc2=O)n(C)c1C [Compound 6b] | PI3Kβ (p110β/p85α) (Homo sapiens) | nM | 361 |

stdin: Returns the measured IC50 for the input compound. Input: CNC(=S)NN=C(C)c1c(O)c2ccccc2oc1=O [Compound 2b]
stdout: 1330

stdin: Returns the measured IC50 for the input compound. Input: CCOC(=O)c1sc(=NN=C(C)c2c(O)c3ccccc3oc2=O)[nH]c1C [Compound 6a]
stdout: 131

src = paper PMC10548181
